target: JAK3 (Homo sapiens (Human), UniProt P52333); experiment: IC50 against JAK3; format: biochemical
Sequence (P52333 whole entry, species assumed): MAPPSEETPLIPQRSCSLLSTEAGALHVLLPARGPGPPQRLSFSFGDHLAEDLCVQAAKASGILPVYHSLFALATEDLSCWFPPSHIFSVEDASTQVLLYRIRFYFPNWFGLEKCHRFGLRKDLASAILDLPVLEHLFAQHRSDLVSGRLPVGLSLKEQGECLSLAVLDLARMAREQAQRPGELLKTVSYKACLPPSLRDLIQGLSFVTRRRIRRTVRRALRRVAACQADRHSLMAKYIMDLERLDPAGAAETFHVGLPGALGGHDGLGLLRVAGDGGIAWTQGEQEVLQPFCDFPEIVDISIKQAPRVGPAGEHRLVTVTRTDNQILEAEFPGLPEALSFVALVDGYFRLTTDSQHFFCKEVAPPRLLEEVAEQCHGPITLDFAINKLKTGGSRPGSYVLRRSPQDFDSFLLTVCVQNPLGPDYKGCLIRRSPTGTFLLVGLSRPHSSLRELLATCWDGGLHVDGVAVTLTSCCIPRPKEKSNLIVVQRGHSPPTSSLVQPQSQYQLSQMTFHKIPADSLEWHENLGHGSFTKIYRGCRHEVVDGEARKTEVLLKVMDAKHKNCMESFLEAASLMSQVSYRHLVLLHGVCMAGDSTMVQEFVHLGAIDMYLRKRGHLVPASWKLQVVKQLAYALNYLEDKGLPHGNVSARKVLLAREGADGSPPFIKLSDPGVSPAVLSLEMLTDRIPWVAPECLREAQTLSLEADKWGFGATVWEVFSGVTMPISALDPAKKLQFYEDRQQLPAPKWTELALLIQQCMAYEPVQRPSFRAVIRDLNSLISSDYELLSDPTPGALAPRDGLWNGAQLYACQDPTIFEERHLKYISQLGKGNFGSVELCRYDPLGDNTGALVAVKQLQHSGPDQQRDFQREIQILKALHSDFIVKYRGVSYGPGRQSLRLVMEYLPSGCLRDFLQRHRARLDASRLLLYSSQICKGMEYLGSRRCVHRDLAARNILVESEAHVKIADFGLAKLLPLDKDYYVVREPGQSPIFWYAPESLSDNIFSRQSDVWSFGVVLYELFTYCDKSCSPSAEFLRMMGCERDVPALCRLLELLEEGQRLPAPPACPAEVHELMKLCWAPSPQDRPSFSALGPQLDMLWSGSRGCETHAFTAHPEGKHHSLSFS
Measured IC50 values are reported for all entries that follow.

The cases that follow already have their IC50 on record.
Prompt line: What does the record list as IC50 for C=CC(=O)N1CCN(C(=O)c2cc(Sc3cnc(NC(C)=O)s3)c(C)cc2C)C[C@H]1C#N ?
Response line: < 10 nM

Prompt line: Then what about the compound C=CC(=O)N1CCCN(C(=O)c2cc(Sc3cnc(NC(=O)C4CC4)s3)c(C)cc2OC)C[C@@H]1C ?
Response line: 1000 to 10000 nM

Prompt line: Query C=CC(=O)N1CC[C@@H](N(C)C(=O)c2cc(Sc3cnc(NC(C)=O)s3)c(C)cc2OC)C1 next
Response line: 10 to 100 nM

Prompt line: Similarly, C=CC(=O)N1CCN(C(=O)c2cc(Sc3cnc(NC(=O)c4cocn4)s3)c(C)cc2OC)CC1 ?
Response line: 100 to 1000 nM

Prompt line: Same for C=CC(=O)N1CCCN(C(=O)c2cc(Sc3cnc(NC(C)=O)s3)c(C)cc2OC)CC1
Response line: 1000 to 10000 nM

Prompt line: Please answer likewise for C=CC(=O)N1CCN(C(=O)c2cc(Sc3cnc(NC(=O)c4cccc(CN(C)C)c4)s3)c(C)cc2OC)CC(F)C1 (centres unmarked)
Response line: 100 to 1000 nM

Prompt line: Do the same for C=CC(=O)N1CCN(C(=O)c2cc(Sc3cnc(NC(=O)C4CC4)s3)c(C)cn2)CC1 please
Response line: ≥ 10000 nM

Prompt line: Moving on to the next compound: COc1cc(C)c(Sc2cnc(NC(=O)C3CC3)s2)cc1C(=O)N1CCN(C(=O)/C=C/CN(C)C)CC1
Response line: ≥ 10000 nM

Prompt line: Same lookup for C=CC(=O)N1CCN(C(=O)c2cc(Sc3cnc(NC(=O)c4cnn(CCN(C)C)c4)s3)c(C)cc2OC)C[C@H]1CC , please.
Response line: 1000 to 10000 nM

Prompt line: What do you have for C=CC(=O)N1CCN(C(=O)c2cc(Sc3cnc(NC(=O)c4ccsc4)s3)c(C)cc2OC)C[C@H]1C#N ?
Response line: < 10 nM

Next:
Prompt line: Entry C=CC(=O)N1CCN(C(=O)c2cc(Sc3cnc(NC(=O)c4ccc(CN(C)C)cc4)s3)c(C)cc2OC)CC1 has what IC50?
Response line: 100 to 1000 nM

Prompt line: Entry to check: C=CC(=O)N1CCCN(C(=O)c2cc(Sc3cnc(NC(=O)C4CC4)s3)c(C)cc2OC)C[C@H]1C(C)C
Response line: ≥ 10000 nM

Prompt line: Okay, and C=CC(=O)N1CCN(C(=O)c2cc(Sc3cnc(NC(C)=O)s3)c(C)cc2OC)CC1 ?
Response line: 100 to 1000 nM

Prompt line: Here is the next compound: C=CC(=O)N1CCN(C(=O)c2cc(Sc3cnc(Nc4ccccn4)s3)c(C)cc2OC)CC1
Response line: 10 to 100 nM

Prompt line: Follow-up entry: C=CC(=O)N1CCC2(C1)CN(C(=O)c1cc(Sc3cnc(NC(=O)C4CC4)s3)c(C)cc1OC)C2
Response line: 100 to 1000 nM

###

biological target: BTK (Homo sapiens (Human)); assay: IC50 against BTK; assay type: biochemical
Sequence (Q06187 whole entry, species assumed): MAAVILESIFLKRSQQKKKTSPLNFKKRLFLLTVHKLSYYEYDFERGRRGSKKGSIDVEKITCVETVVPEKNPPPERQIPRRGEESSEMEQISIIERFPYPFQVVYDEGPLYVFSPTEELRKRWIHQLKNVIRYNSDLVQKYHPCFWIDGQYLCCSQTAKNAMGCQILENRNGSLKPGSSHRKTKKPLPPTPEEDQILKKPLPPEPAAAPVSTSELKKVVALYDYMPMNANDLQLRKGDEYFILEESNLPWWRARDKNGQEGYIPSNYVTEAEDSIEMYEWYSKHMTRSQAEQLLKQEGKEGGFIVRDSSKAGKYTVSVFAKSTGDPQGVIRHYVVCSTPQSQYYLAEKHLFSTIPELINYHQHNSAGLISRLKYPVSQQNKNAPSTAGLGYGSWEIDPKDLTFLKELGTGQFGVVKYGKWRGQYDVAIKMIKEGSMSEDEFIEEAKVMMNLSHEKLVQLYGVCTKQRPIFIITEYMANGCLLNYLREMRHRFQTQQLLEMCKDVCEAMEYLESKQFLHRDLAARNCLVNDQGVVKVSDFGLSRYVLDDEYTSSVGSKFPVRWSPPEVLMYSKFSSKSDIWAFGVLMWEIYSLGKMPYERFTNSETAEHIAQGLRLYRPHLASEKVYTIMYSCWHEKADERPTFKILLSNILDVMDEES
Listing of recorded IC50 by entry.

Prompt line: Form field: reported IC50 of C=CC(=O)N1CCCN(C(=O)c2cc(Sc3cnc(NC(=O)CC)s3)c(C)cc2OC)C[C@H]1C
Response line: ≥ 10000 nM

Prompt line: Would you mind doing C=CC(=O)N1CCC2(C1)CN(C(=O)c1cc(Sc3cnc(NC(=O)c4ccsc4)s3)c(C)cc1OC)C2 as well?
Response line: < 10 nM

Prompt line: Moving on to C=C(CN(C)C)C(=O)N1CCCN(C(=O)c2cc(Sc3cnc(NC(=O)C4CC4)s3)c(C)cc2OC)C[C@H]1C
Response line: ≥ 10000 nM

Further cases:
Prompt line: What value of measured IC50 is listed for C=CC(=O)N1CCCN(C(=O)c2cc(Sc3cnc(NC(=O)c4cccc(CN(C)C)c4)s3)c(C)cc2OC)CC1 ?
Response line: 100 to 1000 nM

Prompt line: Now the same for C=CC(=O)N1CCN(C(=O)c2cc(Sc3cnc(NC(=O)C4CC4)s3)c(Cl)cc2C)C[C@H]1C
Response line: 1000 to 10000 nM

Prompt line: Okay, and C=CC(=O)N1CCCN(C(=O)c2cc(Sc3cnc(NC(=O)C4CCC4)s3)c(C)cc2OC)C[C@H]1C ?
Response line: ≥ 10000 nM

Prompt line: Also need C=CC(=O)N1CCCN(C(=O)c2cc(Sc3cnc(NC(=O)c4ccsc4)s3)c(C)cc2C)C[C@H]1CC , thanks.
Response line: 100 to 1000 nM

Prompt line: // same read-out, input: C=CC(=O)N1[C@@H]2CC[C@H]1CN(C(=O)c1cc(Sc3cnc(Nc4ccccn4)s3)c(C)cc1OC)C2
Response line: < 10 nM

Prompt line: Another molecule to check: C=CC(=O)N1CCN(C(=O)c2cc(Sc3cnc(NC(=O)C4CC4)s3)c(C)cc2OC)CC[C@H]1C
Response line: 1000 to 10000 nM

Prompt line: And for C=CC(=O)N1CCCN(C(=O)c2cc(Sc3cnc(NC(=O)c4ccc(F)c(CN(C)C)c4)s3)c(C)cc2OC)CC1 ?
Response line: 100 to 1000 nM

Prompt line: Please do the same for C=CC(=O)N1CCN(C(=O)c2cc(Sc3cnc(Nc4ccccn4)s3)c(C)cc2OC)CC1 as well.
Response line: < 10 nM

These measurements were taken from patent US11008314B2.
